Would you kindly list Residual turnover [%] for each of these molecules?
Test system: Pseudomonas fluorescens HPPD polypeptide (wild-type and mutants)
Test: Coupled HPPD activity assay: turnover and residual turnover in crude HPPD polypeptide extracts with and without Cmpd. 1
Format: biochemical
Settings: 100 μM Cmpd. 1, normalised to turnover without inhibitor
One number for each entry, in %.

molecule	Residual turnover [%] [%]
SEQ ID NO:27 (protein, mutant HPPD polypeptide) MADLYENPMGLMGFEFIEFASPTPGTLEPIFEIMGFTKVATHRSKNVHLYRQGEINLILNNEPNSIASYFAAEHGPSVCGMAFRVKDSQKAYNRALELGAQPIHIDTGPMELNLPAIKGIGGAPLYLIDRFGEGSSIYDIDFVYLEGVERNPVGAGLKVIDHLTHNVYRGRMVYWANFYEKLFNFREARYFDIKGEYTGLTSKAMSAPDGMIRIPLNEESSKGAGQIEEFLMQFNGEGIQHVAFLTDDLVKTWDALKKIGMRFLTAPGDEYYEMLEGRLPDHGEPVDQLQARGILLDGSSVEGDKRLLLQIFSERLMGPVFFEFIQRKGDDGFGPHSFKVLFESIERDQVRRGVLTAD	58

Now take the following molecule into account.
So, SEQ ID NO:29 (protein, mutant HPPD polypeptide) MADLYENPMGLMGFEFIEFASPTPGTLEPIFEIMGFTKVATHRSKNVHLYRQGEINLILNNEPNSIASYFAAEHGPSVCGMAFRVKDSQKAYNRALELGAQPIHIDTGPMELNLPAIKGIGGAPLYLIDRFGEGSSIYDIDFVYLEGVERNPVGAGLKVIDHLTHNVYRGRMVYWANFYEKLFNFREARYFDIKGEYTGLTSKAMSAPDGMIRIPLNEESSKGAGQIEEFLMQFNGEGIQHVAFLTDDLVKTWDALKKIGMRFMTAPGDEYYEMLEGRLPDHGEPVDQLQARGILLDGSSVEGDKRLLLQIFSEKLMGPVFFEFIQRKGDDGFGPHSFKVLFEQIERDQVRRGVLTAD ? Its Residual turnover [%] was 61
